Molecular target: NMDA receptor
Experiment: Radioligand binding: displacement of [^3 H]CGS19755 from synaptosomal membranes of rat forebrain (NMDA receptor affinity)
Conditions: Table I; racemic; [^3 H]CGS19755 10 nM; mean ± standard error (n = 3), values marked ^c single experiment
pIC50: −log10 of the molar value.
MEASUREMENT LABEL: pIC50

COMPOUND: CC(Cc1nn[nH]n1)[C@H]1CC[C@H]2CN[C@H](C(=O)O)C[C@H]2C1 (some centres unmarked)
ASSAYED SYSTEM: NMDA receptor
CENSORING OPERATOR: =
QUANTITATIVE READOUT: 4.37
--
COMPOUND: O=C(O)[C@@H]1C[C@H]2C[C@@H](CCc3nn[nH]n3)CC[C@H]2CN1 (relative stereo)
ASSAYED SYSTEM: NMDA receptor
CENSORING OPERATOR: =
QUANTITATIVE READOUT: 4.58
--
COMPOUND: O=C(O)[C@@H]1C[C@H]2C[C@@H](CS(=O)(=O)c3ncn[nH]3)CC[C@H]2CN1 (racemic)
ASSAYED SYSTEM: NMDA receptor
CENSORING OPERATOR: <
QUANTITATIVE READOUT: 4.00
--
COMPOUND: O=C(O)[C@@H]1C[C@H]2C[C@@H](C=Cc3nsnc3O)CC[C@H]2CN1 (racemic)
ASSAYED SYSTEM: NMDA receptor
CENSORING OPERATOR: <
QUANTITATIVE READOUT: 4.00
--
COMPOUND: O=CN(Cc1nnn[nH]1)[C@H]1CC[C@H]2CN[C@H](C(=O)O)C[C@@H]2C1 (racemic)
ASSAYED SYSTEM: NMDA receptor
CENSORING OPERATOR: <
QUANTITATIVE READOUT: 4.00

----------
// reported pIC50 per item
Tested on: AMPA receptor
Experiment: Antagonism of AMPA-induced depolarization of rat cortical wedges
Type: cell-based
Conditions: Table III; racemic; AMPA 40 μM; mean ± standard error (n = 3); read-out: IC50 AMPA, antagonism of cortical wedge depolarization
pIC50: −log10 of the molar value.

COMPOUND: O=C(O)[C@@H]1C[C@H]2C[C@@H](C=Cc3nsnc3O)CC[C@H]2CN1 (racemic) [Compound 20]
ASSAYED SYSTEM: AMPA receptor
pIC50: 4.00
--
COMPOUND: O=C(O)[C@@H]1C[C@H]2C[C@@H](CCSc3nnn[nH]3)CC[C@H]2CN1 (racemic) [Compound 9]
ASSAYED SYSTEM: AMPA receptor
pIC50: 4.49
--
COMPOUND: O=C(O)[C@@H]1C[C@H]2C[C@@H](CCCCc3nnn[nH]3)CC[C@H]2CN1 (racemic) [Compound 10]
ASSAYED SYSTEM: AMPA receptor
pIC50: 4.56
--
COMPOUND: O=C(O)[C@@H]1C[C@H]2C[C@@H](CS(=O)(=O)c3ncn[nH]3)CC[C@H]2CN1 (racemic) [Compound 15]
ASSAYED SYSTEM: AMPA receptor
pIC50: 5.67

----------
Target: AMPA receptor
Test: Radioligand binding: [^3 H]AMPA binding with crude membranes of rat forebrain
Details: Table I; racemic; [^3 H]AMPA 5 nM, 100 mM KSCN; mean ± standard error (n = 3), values marked ^c single experiment; read-out: IC50 AMPA, receptor binding
pIC50: −log10 of the molar value.
# label = rule met if pIC50 >= 5 else rule not met

COMPOUND: O=C(O)[C@@H]1C[C@H]2C[C@@H](CSc3ncn[nH]3)CC[C@H]2CN1 (racemic)
CAT: rule not met
--
COMPOUND: O=C(O)[C@@H]1C[C@H]2C[C@@H](C=Cc3nsnc3O)CC[C@H]2CN1 (racemic)
CAT: rule not met
--
COMPOUND: O=C(O)[C@@H]1C[C@H]2C[C@@H](CS(=O)(=O)c3ncn[nH]3)CC[C@H]2CN1 (racemic)
CAT: rule met
--
COMPOUND: O=C(O)[C@@H]1C[C@H]2C[C@@H](CSc3nnn[nH]3)CC[C@H]2CN1 (racemic)
CAT: rule met
--
COMPOUND: O=C(O)[C@@H]1C[C@H]2C[C@H](CCc3nn[nH]n3)CC[C@H]2CN1 (relative stereo)
CAT: rule not met
--
COMPOUND: O=C(O)[C@@H]1C[C@H]2C[C@@H](CCSc3nnn[nH]3)CC[C@H]2CN1 (racemic)
CAT: rule not met
--
COMPOUND: O=C(O)[C@@H]1C[C@H]2C[C@@H](COCc3nnn[nH]3)CC[C@H]2CN1 (racemic)
CAT: rule not met
--
COMPOUND: CS(=O)(=O)NC(=O)CC[C@H]1CC[C@H]2CN[C@H](C(=O)O)C[C@H]2C1 (relative stereo)
CAT: rule not met
--
COMPOUND: O=C(O)[C@@H]1C[C@H]2C[C@H](CSc3nnn[nH]3)CC[C@H]2CN1 (racemic)
CAT: rule met
--
COMPOUND: O=C(O)[C@@H]1C[C@H]2C[C@@H](CCCc3nnn[nH]3)CC[C@H]2CN1 (racemic)
CAT: rule not met
